- experiment description: MRT (infinity) in ICR mouse at 10 mg/kg, po
- Assay type: ADME, organism-based
- reported conditions: in vivo
# Lookup of reported MRT inf keyed by entry
The figure you give is taken to be in h; do not add the unit.

Some solved entries appear below for comparison.
CC(C)(O)C(=O)N1Cc2ccc(Nc3ncc(C(F)(F)F)c(N[C@H]4CC[C@@H](N)CC4)n3)cc2C1
1.92
CC(C)(O)CC(=O)N1Cc2ccc(Nc3ncc(C(F)(F)F)c(N[C@H]4CC[C@@H](N)CC4)n3)cc2C1
1.67
CC(C)(O)C(=O)N1CCc2ccc(Nc3ncc(C(F)(F)F)c(N[C@H]4CC[C@@H](N)CC4)n3)cc2C1
13.9
C[C@@H](O)C(=O)N1CCc2cc(Nc3ncc(C(F)(F)F)c(N[C@H]4CC[C@@H](N)CC4)n3)ccc2C1
2.05
CC(C)(O)CC(=O)N1CCc2cc(Nc3ncc(C(F)(F)F)c(N[C@H]4CC[C@@H](N)CC4)n3)ccc2C1
5.73

Query block: Please give the measured MRT inf for this molecule: CC(=O)N1Cc2ccc(Nc3ncc(C(F)(F)F)c(N[C@H]4CC[C@@H](N)CC4)n3)cc2C1
Result block: 2.29

Query block: Please give the measured MRT inf for this molecule: CC(=O)N1CCc2cc(Nc3ncc(C(F)(F)F)c(N[C@H]4CC[C@@H](N)CC4)n3)ccc2C1
Result block: 2.22

Query block: Please give the measured MRT inf for this molecule: N[C@H]1CC[C@@H](Nc2nc(Nc3ccc4c(c3)CCN(C(=O)CO)C4)ncc2C(F)(F)F)CC1
Result block: 3.43

###

// Receptor-type tyrosine-protein kinase FLT3 (Homo sapiens, UniProt P36888, D835Y) pIC50 records
// field semantics: pIC50 = negative decimal log of concentration (mol/L)

Some solved entries appear below for comparison.
CC(C)(O)CC(=O)N1CCc2cc(Nc3ncc(C(F)(F)F)c(N[C@H]4CC[C@@H](N)CC4)n3)ccc2C1
8.97
CC(C)(N)CCNc1nc(Nc2ccc3c(c2)CCN(C(=O)CC(C)(C)O)C3)ncc1C(F)(F)F
8.48

Query block: Please give the measured pIC50 for this compound: C[C@H](O)C(=O)N1CCc2cc(Nc3ncc(C(F)(F)F)c(N[C@H]4CC[C@@H](N)CC4)n3)ccc2C1
Result block: 9.04

Query block: Please give the measured pIC50 for this compound: CC(C)(O)CC(=O)N1CCc2cc(Nc3ncc(C(F)(F)F)c(N[C@H]4CC[C@@H](NS(C)(=O)=O)CC4)n3)ccc2C1
Result block: 8.42

###

- experimental system: Casein kinase I isoform alpha (Homo sapiens, UniProt P48729)
- Sequence (P48729 whole entry, canonical isoform): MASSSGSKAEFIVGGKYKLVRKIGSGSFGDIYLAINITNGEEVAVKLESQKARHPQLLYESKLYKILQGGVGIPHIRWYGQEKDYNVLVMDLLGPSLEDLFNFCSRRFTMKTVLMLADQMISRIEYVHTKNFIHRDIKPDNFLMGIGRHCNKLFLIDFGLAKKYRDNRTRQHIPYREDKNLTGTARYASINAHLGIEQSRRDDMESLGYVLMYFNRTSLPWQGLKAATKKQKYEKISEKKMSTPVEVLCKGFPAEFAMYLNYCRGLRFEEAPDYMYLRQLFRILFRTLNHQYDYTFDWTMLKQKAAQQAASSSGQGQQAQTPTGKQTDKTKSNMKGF
- experiment description: Inhibition of CK1 alpha (unknown origin) by HTRF assay
quantity name: IC50

Query block: Please give the measured IC50 for this compound: CC(C)(O)CC(=O)N1CCc2cc(Nc3ncc(C(F)(F)F)c(N[C@H]4CC[C@@H](N)CC4)n3)ccc2C1
Result block: > 10 µM

###

# Lookup of reported pIC50 keyed by entry
- experimental system: Serine/threonine-protein kinase Chk1 (Homo sapiens)
- Sequence (O14757 whole entry): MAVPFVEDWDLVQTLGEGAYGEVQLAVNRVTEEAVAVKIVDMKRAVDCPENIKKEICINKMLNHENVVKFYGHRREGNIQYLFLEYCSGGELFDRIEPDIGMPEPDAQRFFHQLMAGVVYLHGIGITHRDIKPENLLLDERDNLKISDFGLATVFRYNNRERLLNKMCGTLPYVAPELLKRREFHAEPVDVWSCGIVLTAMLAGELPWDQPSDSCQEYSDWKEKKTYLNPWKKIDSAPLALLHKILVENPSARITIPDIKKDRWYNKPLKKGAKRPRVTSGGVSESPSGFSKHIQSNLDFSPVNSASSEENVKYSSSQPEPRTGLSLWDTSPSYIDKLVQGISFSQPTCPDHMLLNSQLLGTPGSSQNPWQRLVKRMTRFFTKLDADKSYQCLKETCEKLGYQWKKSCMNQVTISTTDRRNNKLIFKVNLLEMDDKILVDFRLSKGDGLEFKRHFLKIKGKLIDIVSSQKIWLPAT
// field semantics: pIC50 = negative decimal log of concentration (mol/L)

Some solved entries appear below for comparison.
CC(C)(O)CC(=O)N1CCc2cc(Nc3ncc(C(F)(F)F)c(N[C@H]4CC[C@H](N)CC4)n3)ccc2C1
7.02
CC(=O)NCCCNc1nc(Nc2ccc3c(c2)CCN(C(=O)CC(C)(C)O)C3)ncc1C(F)(F)F
6.12
CCn1ccc2cc(Nc3ncc(C(F)(F)F)c(N[C@H]4CC[C@@H](N)CC4)n3)ccc2c1=O
7.57

Query block: Please give the measured pIC50 for this compound: CC(C)(O)CC(=O)N1CCc2cc(Nc3ncc(C(F)(F)F)c(NC[C@H]4CCCNC4)n3)ccc2C1
Result block: 7.06

Query block: Please give the measured pIC50 for this compound: CC(C)(O)CC(=O)N1CCc2cc(Nc3ncc(C(F)(F)F)c(NCC4CCNCC4)n3)ccc2C1
Result block: 7.06

Query block: Please give the measured pIC50 for this compound: CC(=O)N1CCc2ccc(Nc3ncc(C(F)(F)F)c(N[C@H]4CC[C@@H](N)CC4)n3)cc2C1
Result block: 8.12

Query block: Please give the measured pIC50 for this compound: Cn1ncc2cc(Nc3ncc(C(F)(F)F)c(N[C@H]4CC[C@@H](N)CC4)n3)ccc2c1=O
Result block: 7.23
